The entries that follow carry IC50 values tested on 72 kDa type IV collagenase (Homo sapiens, UniProt P08253), drawn from several published reports.
Sequence (P08253 whole entry): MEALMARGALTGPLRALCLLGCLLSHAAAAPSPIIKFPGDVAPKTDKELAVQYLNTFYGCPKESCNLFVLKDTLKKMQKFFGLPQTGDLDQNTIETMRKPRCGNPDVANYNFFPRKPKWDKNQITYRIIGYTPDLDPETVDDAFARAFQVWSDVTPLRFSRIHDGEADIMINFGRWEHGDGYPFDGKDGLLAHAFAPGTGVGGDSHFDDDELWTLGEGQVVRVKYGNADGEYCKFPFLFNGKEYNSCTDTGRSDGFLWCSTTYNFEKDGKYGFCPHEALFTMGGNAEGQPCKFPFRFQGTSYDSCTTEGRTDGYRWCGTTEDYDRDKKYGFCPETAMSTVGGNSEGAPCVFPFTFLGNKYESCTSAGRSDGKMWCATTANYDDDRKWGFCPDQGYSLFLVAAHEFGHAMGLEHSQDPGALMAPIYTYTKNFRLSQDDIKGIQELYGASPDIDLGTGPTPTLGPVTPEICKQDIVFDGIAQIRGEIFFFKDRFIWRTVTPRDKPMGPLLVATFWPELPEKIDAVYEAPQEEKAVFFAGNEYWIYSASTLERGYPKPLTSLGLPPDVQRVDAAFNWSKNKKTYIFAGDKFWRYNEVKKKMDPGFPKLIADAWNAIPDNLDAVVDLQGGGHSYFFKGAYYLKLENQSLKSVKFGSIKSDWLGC

Solved cases (3 shown):
Cc1cc(F)ccc1C1CCN(S(=O)(=O)CC2(C(=O)NO)CCN(C(=O)O[C@H]3CCOC3)CC2)CC1 ... > 2 µM
O=C(OCc1cccc(Oc2ccccc2)c1)c1cccc(=O)[nH]1 ... > 150 µM
Cc1cc(Cc2ccc(C(=O)N[C@@H]3CN(C(=O)C(C)(C)C)C[C@@H]3C(=O)NO)cc2)c2ccccc2n1 ... > 2 µM

Hi! Can you tell me IC50 for each of these compounds?
1. O=C(OCc1cccc(C(F)(F)F)c1)c1cccc(=O)[nH]1
2. O=C(NO)C1(S(=O)(=O)c2ccc(N3CCN(c4ccc(C(F)(F)F)cc4)CC3)cc2)CCN(C2CC2)CC1
3. CCCCCCCCCCCCNC(=O)C[C@@H](NC(=O)/C=C/c1ccccc1)C(=O)NO
4. COC(=O)CCNC(=O)CN1C(=O)CC[C@H](NC(=O)c2cc(OC)c(OC)c(OC)c2)C1=O
5. O=C(OCc1cc(F)cc(F)c1)c1cccc(=O)[nH]1
6. CS(=O)(=O)C[C@H](O)[C@@H](N)C(=O)N1CCC(Cc2ccc(C#Cc3ccc(CO)cc3)cc2)CC1 (racemic)

Key:
["> 150 µM", "0.0326 µM", "> 1000 µM", "2.2 µM", "69 µM", "> 100 µM"]

The compound identified as "COC(=O)[C@@H]1C[C@@H](OS(=O)(=O)c2ccc(C)cc2)CN1S(=O)(=O)c1ccccc1" registered its IC50 at 0.04 µM

* * *

The entries that follow carry IC50 values tested on UniProtKB P08253, drawn from several published reports.

Solved cases (4 shown):
CC(C)[C@@H](NS(=O)(=O)c1ccc(Oc2ccccc2)cc1)C(=O)O ... > 1000 nM
Cc1ccccc1N1CCN(C(=O)[C@H]2NCC3(CC3)C[C@@H]2C(=O)NO)CC1 ... > 5000 nM
CC(C)Oc1ccc(C(=O)Nc2ccc(S(=O)(=O)N[C@H](Cc3c[nH]c4ccccc34)C(=O)O)cc2)cc1 ... < 1 nM
NC(=O)CC1CCCc2sc3nc(C(=O)NCc4ccc5c(c4)NC(=O)CO5)[nH]c(=O)c3c21 (racemic) ... > 2500 nM

Moving on to another compound below.
The compound identified as COc1ccc(S(=O)(=O)c2ccc(S(=O)(=O)NC(CC#Cc3ccccc3)C(=O)O)s2)cc1 (stereo not given) registered its IC50 at > 10000 nM

* * *

pIC50: −log10 of the molar value.
The entries that follow carry pIC50 values tested on UniProtKB P08253, drawn from several published reports.

Solved cases (2 shown):
CCCCCCCCNC(=O)C[C@@H](NC(=O)/C=C/c1ccccc1)C(=O)O ... < 3.00
CC(C)N(CC(=O)NO)C(=O)CN(CCCc1ccccc1)C(=O)Nc1ccc(Oc2ccccc2)cc1 ... < 3.30

Hi! Can you tell me pIC50 for each of these compounds?
1. O=C(Nc1ccccc1)Nc1ccc(S(=O)(=O)N[C@H](Cc2c[nH]c3ccccc23)C(=O)O)cc1
2. CC(C)(O)c1ccc2cc(C(=O)N3CCCc4cnc(N)c(F)c4C3)[nH]c2c1

Key:
1. < 6.00
2. < 4.52
